- Tested on: SR leukemia
- assay: NCI tumour cell line growth inhibition, 48 h; in the data active = GI50 below about 0.43 µM; inactive = the rest
Outcome field: choose from active, inactive

INSERT INTO assay_data (molecule, assigned_class) VALUES
  ('Cc1nccc2c3ccc(OCc4cn(-c5ccc(Cl)cc5)nn4)cc3n(CC(C)C)c12', 'inactive');

Query: Dear all, I need the recorded test outcome for `CCN(Cc1ccc(F)cc1)c1ccc(CO)c(OC)c1` , thank you.
Response: inactive

Query: Please give the result for `CCCN1CCC(c2ccc(Nc3nc(Nc4cc(F)ccc4C(N)=O)c4cc[nH]c4n3)c(OC)c2)CC1` too.
Response: active

Query: `COc1cc(/C=C/C(=O)c2c(C)nc3ccccc3c2C)ccc1OCCCN1CCN(C(=O)c2ccco2)CC1` , same question.
Response: inactive
